# IC50 (cell viability) per entry
# Test system: SHI-1
# conditions: 72 h

> print(dat)
                                   compound            testreadout   result
1  O=C(Cc1cccc(OC(F)(F)F)c1)Nc1ccc(CCCCc2nnc(NC(=O)Cc3ccccn3)s2)nn1 [CB-839]  IC50 (cell viability)  > 10 µM
2  O=C(/C=C/c1cccnc1)NCCCCC1CCN(C(=O)c2ccccc2)CC1 [Daporinad]  IC50 (cell viability)  > 10 µM
3         O=NN(CCCl)C(=O)NCCCl [Carmustine]  IC50 (cell viability)  > 10 µM

Problem: Could you share which IC50 (cell viability) value was measured for O=c1[nH]c(=O)n([C@H]2C[C@H](O)[C@@H](CO)O2)cc1I [Idoxuridine] ?
Solution: > 10 µM

Problem: Could you share which IC50 (cell viability) value was measured for C=C1C(=O)O[C@H](CCCCCCCC)[C@H]1C(=O)O [C75] ?
Solution: > 10 µM

Problem: Could you share which IC50 (cell viability) value was measured for CCCCCCCCCCCCC/C=C/[C@@H](O)[C@H](CO)N(C)C [N,N-Dimethylsphingosine] ?
Solution: > 10 µM

Problem: Could you share which IC50 (cell viability) value was measured for OCCN1C[C@H](O)[C@@H](O)[C@H](O)[C@H]1CO [Miglitol] ?
Solution: > 10 µM

Problem: Could you share which IC50 (cell viability) value was measured for Cc1nc(-c2ccc(OCC(C)C)c(C#N)c2)sc1C(=O)O [Febuxostat] ?
Solution: > 10 µM

Problem: Could you share which IC50 (cell viability) value was measured for CCCCC/C=C\C/C=C\C/C=C\C/C=C\CCCC(=O)C(F)(F)F [Arachidonyl trifluoromethyl ketone] ?
Solution: > 10 µM

* * *

# System: myeloid leukemia patient primary cells Pat.3
# testDetails: cell viability (% survival relative to DMSO control); higher = less cytotoxic
# conditions: 1000 nM; 72 h
Quick rule for you: cell viability under 30% gets 1 (yes), anything else gets 0 (no).

> print(dat)
                                   molecule  assignedcategory
1  NS(=O)(=O)c1ccc(S(=O)(=O)Nc2cccc3c(Cl)c[nH]c23)cc1            0 (no)
2            Fc1ccc(CNc2ncnc3ccc(F)cc23)cc1            0 (no)
3                           Oc1ncc(F)c(O)n1            0 (no)

Problem: For Clc1cc(Cl)c(OCC#CI)cc1Cl , is the recorded cell viability below the cut-off of 30%?
Solution: 1 (yes)

* * *

# System: HL-60
# testDetails: area under dose-response curve (viability, 1 nM-10 uM) (fraction (0-1)); higher = more sensitive
# conditions: 72 h; co-treatment: AZD3965 100 nM
# area under dose-response curve per entry

> print(dat)
                                   molecule                     testreadout    result
1  C=C1NC(=O)c2cc(CN(C)c3ccc(C(=O)N[C@@H](CCC(=O)O)C(=O)O)s3)ccc2N1  area under dose-response curve     0.598
2  COc1ccc2c(c1)c(CC(=O)O)c(C)n2C(=O)c1ccc(Cl)cc1  area under dose-response curve  < 0.0301
3  c1ccc2nc(-c3nnc4sc(-c5cnccn5)nn34)ccc2c1  area under dose-response curve  < 0.0301

Shift focus to the following entry.
Problem: Write down the reported area under dose-response curve of O=C(Oc1ccc([N+](=O)[O-])cc1)N1CCC(C(O)(c2ccc3c(c2)OCO3)c2ccc3c(c2)OCO3)CC1 , test system: HL-60.
Solution: < 0.0301

* * *

# Test system: MOLM-13
# testDetails: cell viability (% survival relative to DMSO control, bortezomib = 0%); higher = less cytotoxic
# conditions: 1 nM; 72 h
testReadout: cell viability (%)
Your answer is read as %, so omit the unit and give the number.

Known cell viability results, listed for orientation:
> print(dat)
                                   molecule  targetentity     testreadout  recordednumber
1  Cn1cc(C[C@@H](N)C(=O)O)c2ccccc21 [Indoximod]       MOLM-13  cell viability             104
2  O=[As]O[As]=O (stereo not given) [Arsenic trioxide]       MOLM-13  cell viability             110

Problem: Write down the reported cell viability of Cc1nnc(-c2ccc(N3CCC(Oc4ccccc4C(F)(F)F)CC3)nn2)s1 [MF-438] , test system: MOLM-13.
Solution: 63.7

Problem: Write down the reported cell viability of Fc1ccc(CNc2ncnc3ccc(F)cc23)cc1 [Spautin 1] , test system: MOLM-13.
Solution: 93.1

Problem: Write down the reported cell viability of COc1cc(C2Oc3cc(C4Oc5cc(O)cc(O)c5C(=O)C4O)ccc3OC2CO)ccc1O (stereo not given) [Silibinin] , test system: MOLM-13.
Solution: 99.8

* * *

# cell viability per entry
# Tested on: THP-1
# testDetails: cell viability (% survival relative to DMSO control, bortezomib = 0%); higher = less cytotoxic
# conditions: 1 nM; 72 h
Your answer is read as %, so omit the unit and give the number.

compound	targetEntity	unitLabel	cell viability
CN(C)CCNC(=O)c1cccn2c(=O)c3cc4ccccc4cc3nc12 [Bmh-21]	THP-1	%	102
C[C@H]1O[C@H](O[C@H]2[C@H](O)[C@@H](O)[C@@H](O[C@H]3[C@H](O)[C@@H](O)C(O)O[C@@H]3CO)O[C@@H]2CO)[C@H](O)[C@@H](O)[C@@H]1N[C@H]1C=C(CO)[C@@H](O)[C@H](O)[C@H]1O (mixture of isomers) [Acarbose]	THP-1	%	87.6
O=C(Oc1cccc(F)c1OC(=O)c1cccc(O)c1)c1cccc(O)c1 [WZB117]	THP-1	%	101
CNC(=C[N+](=O)[O-])NCCSCc1ccc(CN(C)C)o1 [Ranitidine]	THP-1	%	105

Shift focus to the following entry.
Problem: Could you share which cell viability value was measured for O=[As]O[As]=O (stereo not given) [Arsenic trioxide] ?
Solution: 93.9

* * *

# Test system: myeloid leukemia patient primary cells Pat.8
# testDetails: area under dose-response curve (viability, 1 nM-10 uM) (fraction (0-1)); higher = more sensitive
# conditions: 72 h
# area under dose-response curve per entry

Known area under dose-response curve results, listed for orientation:
> print(dat)
                                   compound                              targetentity    result
1  Nc1nc(O)c2c(CCc3ccc(C(=O)N[C@@H](CCC(=O)O)C(=O)O)cc3)c[nH]c2n1 [Pemetrexed]  myeloid leukemia patient primary cells Pat.8  < 0.0301
2  Nc1ccn([C@@H]2O[C@H](CO)[C@@H](O)C2(F)F)c(=O)n1 [Gemcitabine]  myeloid leukemia patient primary cells Pat.8    0.0474
3  NS(=O)(=O)c1ccc(S(=O)(=O)Nc2cccc3c(Cl)c[nH]c23)cc1 [Indisulam]  myeloid leukemia patient primary cells Pat.8    0.0654
4  O=C(Oc1cccc(F)c1OC(=O)c1cccc(O)c1)c1cccc(O)c1 [WZB117]  myeloid leukemia patient primary cells Pat.8     0.211

Problem: Could you share which area under dose-response curve value was measured for CCCCCCCCCCCCC/C=C/[C@@H](O)[C@H](CO)N(C)C [N,N-Dimethylsphingosine] ?
Solution: 0.114

* * *

# System: myeloid leukemia patient primary cells Pat.7
# testDetails: area under dose-response curve (viability, 1 nM-10 uM) (fraction (0-1)); higher = more sensitive
# conditions: 72 h
# area under dose-response curve per entry
# print the numeric value only

> print(dat)
                                   compound  recordednumber
1  O=C(CCl)N(CCCNC(=O)C(F)(F)F)c1ccc([N+](=O)[O-])cc1 [ML-175]           0.533

Problem: Could you share which area under dose-response curve value was measured for O=C(Oc1cccc(F)c1OC(=O)c1cccc(O)c1)c1cccc(O)c1 [WZB117] ?
Solution: 0.119

Problem: Could you share which area under dose-response curve value was measured for O=C(/C=C/c1cccnc1)NCCCCC1CCN(C(=O)c2ccccc2)CC1 [Daporinad] ?
Solution: 0.995

Problem: Could you share which area under dose-response curve value was measured for O=C(Cc1cccc(OC(F)(F)F)c1)Nc1ccc(CCCCc2nnc(NC(=O)Cc3ccccn3)s2)nn1 [CB-839] ?
Solution: 0.532

Problem: Could you share which area under dose-response curve value was measured for c1ccc2c(c1)SCc1c-2[nH]c2ccccc12 ?
Solution: 0.259

* * *

# Tested on: KG-1
# testDetails: cell viability (% survival relative to DMSO control, bortezomib = 0%); higher = less cytotoxic
# conditions: 10 nM; 72 h
testReadout: cell viability (%)
Your answer is read as %, so omit the unit and give the number.

Known cell viability results, listed for orientation:
> print(dat)
                                   compound  unitlabel  recordednumber
1           CCCC(CCC)C(=O)O [Valproic acid]          %            98.7
2  NCc1ccc(S(N)(=O)=O)cc1 [4-Homosulfanilamide]          %              96
3  OCC(CO)N[C@H]1C[C@](O)(CO)[C@@H](O)[C@H](O)[C@H]1O [Voglibose]          %             102
4  O=C(CCl)N(CCCNC(=O)C(F)(F)F)c1ccc([N+](=O)[O-])cc1 [ML175]          %             109
5             CN(C)C(=N)NC(=N)N [Metformin]          %            97.3
6     Clc1cc(Cl)c(OCC#CI)cc1Cl [Haloprogin]          %             101

Problem: Could you share which cell viability value was measured for N#Cc1ccc(C2CCCc3cncn32)cc1 (centres undefined) [Fadrozole] ?
Solution: 97.9

Problem: Could you share which cell viability value was measured for CN(C)C(=O)n1nnnc1Cc1ccc(-c2ccccc2)cc1 ?
Solution: 108

Problem: Could you share which cell viability value was measured for c1ccc2nc(-c3nnc4sc(-c5cnccn5)nn34)ccc2c1 ?
Solution: 107

All figures here come from the supplement of paper PMC8671470.
